Test system: Escherichia coli TOP10
assay.summary: shrunken log2 fold change of peptide-encoding DNA abundance (4.5 h post-induction vs induction); higher = less antimicrobial activity (less host growth inhibition)
test.settings: time post-induction: 4.5 h; library: site-saturation at positions 5, 18, 19, 20
recorded.endpoint: shrunken log2 fold change
No unit in the answer, only the number.

Example entries begin here.
residue.sequence | shrunken log2 fold change
RRIRTRPPRLPRPRPRPSTAPRP | 0.181
RRIRIRPPRLPRPRPRPDGMPRP | -0.06

Data request: Requested read-out: shrunken log2 fold change. Entry: `RRIRFRPPRLPRPRPRPKTDPRP`
Data returned: -0.0282

Data request: How about this sequence: `RRIRQRPPRLPRPRPRPKETPRP`
Data returned: 0.00762

Data request: Another sequence: `RRIRVRPPRLPRPRPRPRSMPRP`
Data returned: -0.123

Data request: Consider next the sequence `RRIRYRPPRLPRPRPRPVLLPRP` in the same way.
Data returned: -0.109

Data request: One more sequence: `RRIRLRPPRLPRPRPRPHAKPRP`
Data returned: -0.0928

Data request: Consider next the sequence `RRIRSRPPRLPRPRPRPGNAPRP` in the same way.
Data returned: 0.119

Data request: Same again, this time with `RRIRRRPPRLPRPRPRPAQNPRP`
Data returned: 0.398

Data request: Can you check `RRIRWRPPRLPRPRPRPDWLPRP` next?
Data returned: 0.111

* * *

Test system: Escherichia coli TOP10;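 further: peptides expressed intracellularly from a pBAD plasmid library in pooled LB shake-flask culture, induced with 0.3% L-arabinose, DNA abundance read by NGS, three biological replicates, DESeq2 with apeglm shrinkage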
assay.summary: shrunken log2 fold change of peptide-encoding DNA abundance (4.5 h post-induction vs induction); higher = less antimicrobial activity (less host growth inhibition)
test.settings: time post-induction: 4.5 h; library: site-saturation at positions 5, 18, 19, 20
Quick rule: shrunken log2 fold change of at least -0.08 means y, below that means n.

residue.sequence | label.class
RRIRNRPPRLPRPRPRPQDYPRP | y
RRIRGRPPRLPRPRPRPQVCPRP | y
RRIRNRPPRLPRPRPRPHKYPRP | n
RRIRCRPPRLPRPRPRPGGQPRP | n
RRIRGRPPRLPRPRPRPRCWPRP | y
RRIRARPPRLPRPRPRPDENPRP | y
RRIRARPPRLPRPRPRPSVRPRP | y
RRIRRRPPRLPRPRPRPNKGPRP | y
RRIRVRPPRLPRPRPRPCWQPRP | y
RRIRKRPPRLPRPRPRPDDKPRP | y

Data request: Tell me whether shrunken log2 fold change is at least -0.08 here: `RRIRPRPPRLPRPRPRPGRMPRP`
Data returned: y

Data request: Entry `RRIRSRPPRLPRPRPRPTCIPRP` please
Data returned: y

Data request: Then this sequence: `RRIRDRPPRLPRPRPRPIGYPRP`
Data returned: n

Data request: And the next one, `RRIRPRPPRLPRPRPRPAAYPRP` ?
Data returned: y

Data request: Can you check `RRIRLRPPRLPRPRPRPMRAPRP` next?
Data returned: y

Data request: How about this sequence: `RRIRFRPPRLPRPRPRPHNCPRP`
Data returned: n

Data request: Would you mind doing `RRIRTRPPRLPRPRPRPQWSPRP` as well?
Data returned: n

Data request: Same for `RRIRQRPPRLPRPRPRPQNYPRP`
Data returned: y

Data request: Now consider `RRIRCRPPRLPRPRPRPDETPRP` .
Data returned: y

Data request: Same thing, different sequence: `RRIRPRPPRLPRPRPRPWEIPRP`
Data returned: y

Data request: Now consider `RRIRQRPPRLPRPRPRPHYTPRP` .
Data returned: n

Data request: `RRIRARPPRLPRPRPRPYTGPRP` , same question.
Data returned: n

Data request: What do you get for `RRIRYRPPRLPRPRPRPNNSPRP` ?
Data returned: n

Data request: And `RRIRLRPPRLPRPRPRPENEPRP` ?
Data returned: y

Data request: What about this sequence? `RRIRERPPRLPRPRPRPMKRPRP`
Data returned: n

Data request: Same again, this time with `RRIRCRPPRLPRPRPRPKFRPRP`
Data returned: n

Data request: Next up: `RRIRTRPPRLPRPRPRPTSMPRP`
Data returned: y

Data request: Next record, please: `RRIRFRPPRLPRPRPRPMYSPRP`
Data returned: n
